Below: a set of entries, each annotated with reported pIC50.
Assay: Inhibitory activity against human gamma-secretase in SH-SY5Y neuroblastoma cells
Type: cell-based
# reply with the number alone; pIC50 is -log10 of concentration in mol/L

Please review the following examples before continuing.
compound | endpoint-name | numeric-result
O=C1Nc2ccccc2C(c2ccccc2)=N[C@@H]1NC(=O)[C@@H](c1ccc(F)cc1)[C@H](CCO)c1ccc(F)c(F)c1 | pIC50 | 7.46
O=C1Nc2ccccc2C(c2ccccc2)=N[C@@H]1NC(=O)[C@@H](c1ccc(F)cc1)[C@H](CO)c1ccc(F)c(F)c1 | pIC50 | 10.22
CC(C(=O)N[C@H]1N=C(c2ccccc2)c2ccccc2N(C)C1=O)C(=O)c1ccc(Cl)c(Cl)c1 (stereo partly drawn) | pIC50 | 6.03
C[C@H](C(=O)N[C@H]1N=C(c2ccccc2)c2ccccc2N(C)C1=O)[C@H](OS(N)(=O)=O)c1ccc(Cl)c(Cl)c1 | pIC50 | 6.35
CC[C@H](c1ccc(F)c(F)c1)[C@@H](C(=O)N[C@H]1N=C(c2ccccc2)c2ccccc2N(C)C1=O)c1ccc(F)cc1 | pIC50 | 6.67

Value of measured pIC50 for the entry C[C@H](C(=O)N[C@H]1N=C(c2ccccc2)c2ccccc2N(C)C1=O)[C@H](OCC(N)=O)c1ccc(Cl)c(Cl)c1 : 5.32

What the record says about C[C@H](C(=O)N[C@H]1N=C(c2ccccc2)c2ccccc2N(C)C1=O)[C@@H](O)c1ccc(Cl)c(Cl)c1 : pIC50 is 6.42

So, CN1C(=O)[C@@H](NC(=O)[C@@H](c2ccc(F)cc2)[C@H](CBr)c2ccc(F)c(F)c2)N=C(c2ccccc2)c2ccccc21 ? Its pIC50 was 8.17

In plain terms, CN1C(=O)[C@@H](NC(=O)[C@@H](c2ccc(F)cc2)[C@H](CO)c2ccc(F)c(F)c2)N=C(c2ccccc2)c2ccccc21 has a documented pIC50 of 10.15

The measured pIC50 associated with CO[C@H](c1ccc(Cl)c(Cl)c1)[C@H](C)C(=O)N[C@H]1N=C(c2ccccc2)c2ccccc2N(C)C1=O reads 7.23

---

Assay: Inhibitory activity against human gamma-secretase in SH-SY5Y neuroblastoma cells
Assay type: cell-based
pIC50: −log10 of the molar value.
Label Criterion met when pIC50 >= 7; otherwise Criterion not met.

Answered cases to consult:
molecule | class-assignment
O=C1Nc2ccccc2N(c2ccccc2)C[C@@H]1NC(=O)[C@@H](c1ccc(F)cc1)[C@H](CO)c1ccc(F)c(F)c1 | Criterion met
CN1C(=O)[C@@H](NC(=O)[C@@H](c2ccc(F)cc2)C(O)c2ccc(F)c(F)c2)N=C(c2ccccc2)c2ccccc21 (some centres not stated) | Criterion met
C[C@H](C(=O)N[C@H]1N=C(c2ccccc2)c2ccccc2N(C)C1=O)[C@H](O)c1ccc(Cl)c(Cl)c1 | Criterion met
CN1C(=O)[C@@H](NC(=O)[C@@H](Cc2ccc(Cl)c(Cl)c2)c2ccc(F)cc2)N=C(c2ccccc2)c2ccccc21 | Criterion met

Problem: Please check the record C[C@H](C(=O)N[C@H]1N=C(c2ccccc2)c2ccccc2N(C)C1=O)[C@H](OC(N)=O)c1ccc(Cl)c(Cl)c1 and state if its pIC50 is at or above 7.
Solution: Criterion not met

---

Assay: Inhibitory activity against human gamma-secretase in SH-SY5Y neuroblastoma cells
Format: cell-based
pIC50: −log10 of the molar value.
Values of pIC50 greater than or equal to 7 map to Satisfied; values below map to Not satisfied.

Example cases with answers are listed next.
molecule | class-assignment
CO/N=C(\c1ccc(Cl)c(Cl)c1)C(C)C(=O)N[C@H]1N=C(c2ccccc2)c2ccccc2N(C)C1=O (stereo partly drawn) | Not satisfied
C[C@@H](C(=O)N[C@H]1N=C(c2ccccc2)c2ccccc2N(C)C1=O)[C@@H](O)c1ccc(Cl)c(Cl)c1 | Not satisfied
C[C@@H](C(=O)N[C@H]1N=C(c2ccccc2)c2ccccc2N(C)C1=O)[C@H](O)c1ccc(Cl)c(Cl)c1 | Not satisfied
CN1C(=O)[C@@H](NC(=O)[C@H](c2ccc(F)cc2)[C@@H](O)c2ccc(F)c(F)c2)N=C(c2ccccc2)c2ccccc21 | Satisfied
C[C@H](Cc1ccc(Cl)c(Cl)c1)C(=O)N[C@H]1N=C(c2ccccc2)c2ccccc2N(C)C1=O | Not satisfied

Problem: I'd appreciate it if you could say whether CC(C(=O)N[C@H]1N=C(c2ccccc2)c2ccccc2N(C)C1=O)C(CO)c1ccc(F)c(F)c1 (stereo partly drawn) has pIC50 at least equal to 7.
Solution: Satisfied

Problem: Form field: pIC50 at least 7? Entry: CN1C(=O)[C@@H](NC(=O)[C@@H](c2ccc(F)cc2)C(O)c2ccc(Cl)c(Cl)c2)N=C(c2ccccc2)c2ccccc21 (stereo partly drawn)
Solution: Satisfied

Problem: Say whether CC(C(=O)N[C@H]1N=C(c2ccccc2)c2ccccc2N(C)C1=O)/C(=N/O)c1ccc(Cl)c(Cl)c1 (stereo partly drawn) shows pIC50 of 7 or more.
Solution: Satisfied
